Reported growth by item:
System: SNB-19 CNS
PROCEDURE_DETAILS: NCI-60 one-dose screen, 48 h (100 = growth as untreated, 0 = no growth, -100 = all killed)
EXPERIMENTAL_SETUP: 10 µM unless noted
This is part of a sample that, as a whole, favours compounds with a hit. Of some 83,000 tested, about 20% had one in any assay.
The answer is to be given in %; state only the numeric part.

Look up growth: CC(=O)Oc1ccc(OC(C)=O)c2ccccc12
91.9

Look up growth: COc1ccc(/C=C/c2c(C(=O)/C=C/c3ccccc3)c(C)nc3ccccc23)cc1
16.3

Look up growth: N#C/C(=C\c1ccc([N+](=O)[O-])cc1)n1nnc2cc(F)c(F)cc21
69

Continuing:
Look up growth: CC(C)N1C(=O)/C(=c2\sc3n(c2=O)C2C(NN=3)N(C)C(=O)N2C)c2ccccc21 (stereo not given)
61.9

Look up growth: Nc1nc(N)c2c(n1)NC(c1cccc(Nc3ccnc4cc(C(F)(F)F)ccc34)c1)CC(c1ccccc1)=N2 (stereo not given)
64.4

====

Tested on: TK-10 renal
PROCEDURE_DETAILS: NCI-60 one-dose screen, 48 h (100 = growth as untreated, 0 = no growth, -100 = all killed)
EXPERIMENTAL_SETUP: 10 µM unless noted
This is part of a sample that, as a whole, favours compounds with a hit. Of some 83,000 tested, about 20% had one in any assay.
Hi, to clarify the labels: 1 (yes) covers growth from 90% upward, 0 (no) covers anything below 90%.

Answered cases to consult:
Has CS(=O)(=O)c1nnc(-c2ccccc2)s1 a recorded growth greater than or equal to 90%?
1 (yes)

Has COc1ccc2c(c1)c(/C(O)=C1\COC(=O)C1=O)cn2Cc1ccc(F)cc1 a recorded growth greater than or equal to 90%?
1 (yes)

Has CC1C(/C=N/NC(N)=S)C(C#N)(C#N)C1(C#N)C#N (centres undefined) a recorded growth greater than or equal to 90%?
1 (yes)

Has COc1cc(/C=N/Nc2ccc(Br)cc2)cc(OC)c1OC a recorded growth greater than or equal to 90%?
1 (yes)

Has c1ccc2c(c1)CCCc1nnc3nc4ccccc4n3c1-2 a recorded growth greater than or equal to 90%?
0 (no)

Continuing:
Has O=C(CCCCCNC(=O)c1cc(=O)c(O)co1)Nc1ccccc1 a recorded growth greater than or equal to 90%?
1 (yes)

Has C=C(C)[C@@H]1CCC[C@]2(C(=O)N3CCN(C)CC3)CC[C@]3(C)[C@@H](CC[C@@H]4[C@@]5(C)CC/C(=N\NC(=O)c6ccncc6)C(C)(C)[C@@H]5CC[C@]43C)[C@@H]12 a recorded growth greater than or equal to 90%?
1 (yes)

====

Tested on: SK-OV-3 ovarian
PROCEDURE_DETAILS: NCI-60 one-dose screen, 48 h (100 = growth as untreated, 0 = no growth, -100 = all killed)
EXPERIMENTAL_SETUP: 10 µM unless noted
Compounds without any hit were thinned out: in the full panel of roughly 83,000, 20% have a hit.
Hi, to clarify the labels: Met covers growth from 80% upward, Not met covers anything below 80%.

Answered cases to consult:
Has CCN1C(=O)N(CC)C2C1N=C(SCc1ccc(Cl)cc1)N2/N=C/C=C/c1ccccc1OC (stereo not given) a recorded growth greater than or equal to 80%?
Not met

Has C=C(C)[C@@H]1CC[C@]2(C)[C@H](CC=C3[C@@H]4CC(C)(C)CC[C@]4(CO)CC[C@]32C)[C@@]1(C)CCCN a recorded growth greater than or equal to 80%?
Met

Has CCOC(=O)c1cnc2c(N=Nc3ccc(OC)cc3)c(N)nn2c1N a recorded growth greater than or equal to 80%?
Met

Continuing:
Has O=C1Nc2ccccc2C1(c1c[nH]c2ccccc12)c1c[nH]c2ccccc12 a recorded growth greater than or equal to 80%?
Not met

Has O=C(CCCCCCN1CC(=O)N2[C@H](c3ccc(Cl)cc3)c3[nH]c4ccccc4c3C[C@@H]2C1=O)NO a recorded growth greater than or equal to 80%?
Not met

====

Tested on: SNB-19 CNS
PROCEDURE_DETAILS: NCI-60 one-dose screen, 48 h
EXPERIMENTAL_SETUP: 10 µM unless noted
About 83,000 compounds went through this panel and 20% of them were active in at least one assay; those are over-represented in the sample as a whole. Activity calls are given as the source filed them. How the source made its calls: active means growth percent below 10; inactive means the rest.
Permitted responses: true for active, false for inactive

Answered cases to consult:
Tell me the assay call for [2H]C([2H])([2H])Oc1ccc(F)cc1/C=C/C(=O)/C=C(O)/C=C/c1cc(F)ccc1OC([2H])([2H])[2H] please.
false

Tell me the assay call for O=C(/C=C/c1cccc(Cl)c1Cl)Nc1ncc(Cc2ccccc2Cl)s1 please.
false

Tell me the assay call for C=CN(C(=O)N1CCN(c2cc3c(cc2F)c(=O)c(C(=O)O)cn3C2CC2)CC1)c1nc(-c2ccc(OC)cc2)cs1 please.
false

Tell me the assay call for Cn1c2c(c3ccc(Cl)c(Cl)c31)C(C#N)C(C)(C)NC2=O (stereo not drawn) please.
false

Tell me the assay call for O=C(Cc1ccccc1)Nc1cccc(N=Cc2ccccc2O)c1 please.
false

Tell me the assay call for C/C=C(/C)n1cnc2c(Nc3ccccn3)nc(Cl)nc21 please.
false

Tell me the assay call for CCN(CC)CCCN1C(=O)c2c(c(C)c3c(oc4ccc(OC)cc43)c2C)C1=O please.
false

Tell me the assay call for C#CC#CC#CC#CC#CC#CC#CC#CCC1OC[C@H](COC(=O)O[C@@H](C(=O)O[C@H]2C[C@@]3(O)[C@@H](OC(=O)c4ccccc4)[C@@H]4[C@]5(OC(C)=O)CO[C@@H]5C[C@H](O)[C@@]4(C)C(=O)[C@H](OC(C)=O)C(=C2C)C3(C)C)[C@@H](NC(=O)c2ccccc2)c2ccccc2)O1 (stereo partly drawn) please.
false

Continuing:
Tell me the assay call for CN1CCN(Cc2ccc(NC(=O)c3cncc(C#Cc4cnc(N)c5ncccc45)c3)cc2C(F)(F)F)CC1 please.
false

Tell me the assay call for O=C(/C=C(O)/C=C/c1cccc2[nH]ccc12)/C=C/c1cccc2[nH]ccc12 please.
false

Tell me the assay call for FC(F)(F)Oc1cccc(-c2cnc3ccc(-c4ccncc4)nn23)c1 please.
false

Tell me the assay call for O=C(Cc1ccc(/C=C/C(=O)c2ncc[nH]2)cc1)Nc1cc(C(F)(F)F)cc(C(F)(F)F)c1 please.
false

Tell me the assay call for CN(C)CCCC1(c2ccc(F)cc2)OCc2cc(-c3ccc4cc[nH]c4c3)ccc21 (stereo not drawn) please.
false

====

Test system: MCF7 breast
PROCEDURE_DETAILS: NCI-60 one-dose screen, 48 h (100 = growth as untreated, 0 = no growth, -100 = all killed)
EXPERIMENTAL_SETUP: 10 µM unless noted
The panel holds about 83,000 compounds, 20% with a hit somewhere; the sample as a whole holds those more often.
MEASURED_METRIC: growth (%)
The answer is to be given in %; state only the numeric part.

Consider the worked cases shown below.
Fill in the recorded growth for this compound, with MCF7 breast as test system: O=C1/C(=C/c2ccc(F)cc2)CN(C(=O)C(Cl)Cl)C/C1=C\c1ccc(F)cc1
-60.9

Fill in the recorded growth for this compound, with MCF7 breast as test system: CCN1CCN(CCNc2nccc(-c3c(-c4ccc(F)c(OC)c4)nc4sccn34)n2)S1(=O)=O
50

Continuing:
Fill in the recorded growth for this compound, with MCF7 breast as test system: Cc1cccc(Oc2ccc(Nc3ncnc4ccc(NC(=O)CN5CCN(C)CC5)cc34)cc2Cl)c1
7.21

Fill in the recorded growth for this compound, with MCF7 breast as test system: CCOC(=O)c1nn(CC(O)c2ccccc2)c(NC(=O)Nc2cccc(F)c2)c1C (stereo not given)
91.3

Fill in the recorded growth for this compound, with MCF7 breast as test system: O=C(NNC(=O)c1nc2cc(F)ccc2n2cccc12)c1cnccn1
34.8

====

Tested on: CCRF-CEM leukemia
PROCEDURE_DETAILS: NCI-60 one-dose screen, 48 h
EXPERIMENTAL_SETUP: 10 µM unless noted
The panel holds about 83,000 compounds, 20% with a hit somewhere; the sample as a whole holds those more often. Calls of active or inactive are those of the source. How the source made its calls: active means growth percent below 10; inactive means the rest.
Permitted responses: active, inactive

Tell me the assay call for CN(CCC(=O)c1ccccc1)CCC(=O)c1ccccc1 please.
inactive

Tell me the assay call for CC(=O)/C(=C/c1ccc([N+](=O)[O-])cc1)C(=O)c1ccccc1 please.
inactive

Tell me the assay call for COc1cc(OC)c(/C=C/C(=O)c2c(O)cc(OC)c(C3CCN(C)CC3)c2OC)c(OC)c1 please.
active

Tell me the assay call for CCN1CCN(CC(=O)Nc2nc3ccc(NCc4ccc(F)cc4)cc3s2)CC1 please.
inactive

Then there is this compound:
Tell me the assay call for CCN1C(=O)N(CC)C2C1NC(=S)N2/N=C/c1ccc(OC)cc1 (stereo not given) please.
inactive
